Target: human collagen type I (acid soluble, extracted from placenta, Sigma C7774) (human) (UniProt P02452)
Sequence (P02452 162-1218 limits assumed, chain 1 of 2): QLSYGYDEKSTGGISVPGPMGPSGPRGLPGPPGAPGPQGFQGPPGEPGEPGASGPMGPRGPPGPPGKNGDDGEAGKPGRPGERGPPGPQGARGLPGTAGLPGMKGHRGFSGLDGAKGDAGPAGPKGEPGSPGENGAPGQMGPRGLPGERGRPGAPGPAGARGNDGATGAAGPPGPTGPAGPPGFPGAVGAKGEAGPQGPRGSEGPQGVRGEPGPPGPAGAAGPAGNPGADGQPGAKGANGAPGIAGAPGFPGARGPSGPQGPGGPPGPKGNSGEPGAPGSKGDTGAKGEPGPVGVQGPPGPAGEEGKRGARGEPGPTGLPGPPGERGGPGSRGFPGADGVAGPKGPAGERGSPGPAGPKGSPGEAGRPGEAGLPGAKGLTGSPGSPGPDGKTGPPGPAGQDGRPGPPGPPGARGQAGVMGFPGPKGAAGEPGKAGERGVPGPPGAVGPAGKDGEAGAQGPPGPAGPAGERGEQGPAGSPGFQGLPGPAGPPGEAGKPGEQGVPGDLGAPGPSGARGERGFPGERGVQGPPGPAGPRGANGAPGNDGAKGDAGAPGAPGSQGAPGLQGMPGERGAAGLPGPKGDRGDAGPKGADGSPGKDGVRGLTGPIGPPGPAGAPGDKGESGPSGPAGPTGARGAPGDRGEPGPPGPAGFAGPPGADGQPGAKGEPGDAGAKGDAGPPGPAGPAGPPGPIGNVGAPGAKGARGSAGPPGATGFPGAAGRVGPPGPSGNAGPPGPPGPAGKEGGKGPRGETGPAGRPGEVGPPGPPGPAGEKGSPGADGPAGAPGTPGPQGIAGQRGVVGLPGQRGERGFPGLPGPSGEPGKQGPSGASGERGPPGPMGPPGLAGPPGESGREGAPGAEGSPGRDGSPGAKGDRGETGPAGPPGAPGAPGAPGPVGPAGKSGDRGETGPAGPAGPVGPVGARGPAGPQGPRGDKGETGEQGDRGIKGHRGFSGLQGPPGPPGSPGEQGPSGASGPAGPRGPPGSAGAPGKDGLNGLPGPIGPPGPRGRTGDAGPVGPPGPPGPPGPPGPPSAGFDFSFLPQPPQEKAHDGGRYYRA
Sequence (P08123 80-1119 limits assumed, chain 2 of 2, further chain): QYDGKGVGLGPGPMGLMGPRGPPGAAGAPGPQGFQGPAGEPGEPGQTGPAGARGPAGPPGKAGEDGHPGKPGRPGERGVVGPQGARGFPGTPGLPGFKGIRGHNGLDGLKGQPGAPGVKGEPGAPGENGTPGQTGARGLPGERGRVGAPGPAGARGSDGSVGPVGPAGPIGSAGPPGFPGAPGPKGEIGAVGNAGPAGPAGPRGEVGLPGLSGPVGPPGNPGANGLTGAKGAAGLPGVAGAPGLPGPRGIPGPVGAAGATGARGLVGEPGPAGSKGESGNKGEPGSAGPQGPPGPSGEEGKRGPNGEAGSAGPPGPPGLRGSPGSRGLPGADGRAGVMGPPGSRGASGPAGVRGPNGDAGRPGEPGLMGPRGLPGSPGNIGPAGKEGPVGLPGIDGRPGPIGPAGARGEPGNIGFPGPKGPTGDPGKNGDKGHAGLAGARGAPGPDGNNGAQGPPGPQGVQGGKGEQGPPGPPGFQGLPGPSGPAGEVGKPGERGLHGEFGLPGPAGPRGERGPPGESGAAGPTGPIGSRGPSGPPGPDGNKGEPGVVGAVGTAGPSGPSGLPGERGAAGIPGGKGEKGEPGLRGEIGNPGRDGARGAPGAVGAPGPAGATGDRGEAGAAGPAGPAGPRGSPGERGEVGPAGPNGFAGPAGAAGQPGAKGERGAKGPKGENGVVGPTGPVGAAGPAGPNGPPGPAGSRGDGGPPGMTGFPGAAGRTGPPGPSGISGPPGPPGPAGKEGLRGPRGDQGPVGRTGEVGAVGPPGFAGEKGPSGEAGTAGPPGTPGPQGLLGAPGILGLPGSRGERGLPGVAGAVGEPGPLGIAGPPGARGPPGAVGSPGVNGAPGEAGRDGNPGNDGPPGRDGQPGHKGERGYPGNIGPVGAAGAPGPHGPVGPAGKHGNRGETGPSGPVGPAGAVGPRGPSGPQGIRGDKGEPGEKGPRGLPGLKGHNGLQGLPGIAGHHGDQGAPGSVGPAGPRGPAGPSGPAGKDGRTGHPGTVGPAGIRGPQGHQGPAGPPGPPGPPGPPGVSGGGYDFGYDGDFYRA
Assay: dried collagen assay
Bridge positions count the residues as written; N and C are the ends. Square brackets hold non-standard residues; d marks the D form. Primed or numbered codes have the meaning given here. Ends that are not written are not given here. Gd^T″ = GdDTPA-thiourea
value-type: % bound (%)
Number in %, nothing else.

binder	value-type	unit-of-measure	observed-result
{Gd^T″}-DWTCS[dY]DEYTWHCNYE (disulfide 4-13 (inferred)) [Comp ID 829]	% bound	%	20

Look up % bound of GQWHCTTRFPHHTCLYG (not fully specified; Gd^T-GQWHCTTRFPHHtCLYG) [Comp ID 905] and report it.
6

Look up % bound of GWQCFGASDWHCTWV (disulfide 4-12 (inferred)) [SEQ ID NO: 8] and report it.
9

Look up % bound of FWTCELDFRQSWYCYDK (disulfide 4-14 (inferred)) [SEQ ID NO: 79] and report it.
8

Look up % bound of GWSCHSMDMQWHCDFS (disulfide 4-13 (inferred)) [SEQ ID NO: 67] and report it.
5

Look up % bound of GQWHCTTLFPHHYCLYG (not fully specified; Gd^T-GQWHCTTLFPHHyCLYG) [Comp ID 907] and report it.
6
